# assay protocol: in vivo
# conditions used: male, SD, rat, iv, 1 mg/kg, 0.083 h
In this section, each of the molecules is paired with its reported Mean plasma drug concentration.
value kind: Mean plasma drug concentration (nM)

> print(dat)
                                   molecule  unit.abbreviation  value
1  CCCCOc1nc(N)c2[nH]cc(Cc3ccc(CN4CCCC4)cc3)c2n1 [Example 21]                 nM    318
2  CCCCOc1nc(N)c2c(n1)N(Cc1cccc(CN3CCCC3)c1)CC(=O)N2 [GS-9620, reference compound]                 nM    170

###

# assay protocol: in vivo
# conditions used: male, SD, 1 mg/kg, rat, IV 1 mpk, read-out: T½ (converted)
value kind: half-life (h)

> print(dat)
                                   molecule  value.kind  unit.abbreviation  value
1  CCCCOc1nc(N)c2c(n1)N(Cc1cccc(CN3CCCC3)c1)CC(=O)N2 [GS-9620, reference compound]   half-life                  h   2.57

###

In this section, each of the molecules is paired with its reported Mean plasma drug concentration.
# assay protocol: in vivo
# conditions used: male, SD, rat, iv, 1 mg/kg, 2 h
value kind: Mean plasma drug concentration (µM)

> print(dat)
                                   molecule                      value.kind  unit.abbreviation   value
1  CCCCOc1nc(N)c2[nH]cc(Cc3ccc(CN4CCCC4)cc3)c2n1  Mean plasma drug concentration                 µM  0.0489
2  CCCCOc1nc(N)c2c(n1)N(Cc1cccc(CN3CCCC3)c1)CC(=O)N2 [GS-9620, reference compound]  Mean plasma drug concentration                 µM  0.0216

###

# assay protocol: in vivo
# conditions used: male, SD, rat, po, 5 mg/kg, 4 h
# Method: 12 male SD rats were divided into 4 groups with 3 SD rats in each group. […] […] Each rat with oral administration was collected for whole blood samples which were prepared into plasma 15, 30 min and 1, 2, 4, 8, 24 h continuously after administration.
value kind: Mean plasma drug concentration (nM)

> print(dat)
                                   compound  value
1  CCCCOc1nc(N)c2[nH]cc(Cc3ccc(CN4CCCC4)cc3)c2n1   51.2
2  CCCCOc1nc(N)c2c(n1)N(Cc1cccc(CN3CCCC3)c1)CC(=O)N2 [GS-9620, reference compound]   16.7

###

In this section, each of the molecules is paired with its reported EC50.
# subject of test: Toll-like receptor 7 (Homo sapiens (Human))
# assay protocol: Toll-like receptor 7 in vitro receptor binding activity screen (HEK-blue hTLR7 cell, alkaline phosphatase/Quanti-Blue readout)
# Format: cell-based
# conditions used: HEK-blue hTLR7 cell, 24 h; read-out: TLR7 EC50
value kind: EC50

> print(dat)
                                   molecule                           subject.of.test             value
1  CCCCOc1nc(N)c2[nH]cc(Cc3ccc(CN4CCCC4)cn3)c2n1 [Example 40]  Toll-like receptor 7 (Homo sapiens (Human))    100 to 1000 nM
2  COCCOc1nc(N)c2[nH]cc(Cc3ccccc3)c2n1 [Example 35]  Toll-like receptor 7 (Homo sapiens (Human))  1000 to 50000 nM
3  CCCCOc1nc(N)c2[nH]cc(Cc3ccc(CN4CCC4)cc3)c2n1 [Example 14]  Toll-like receptor 7 (Homo sapiens (Human))    100 to 1000 nM
4  CCCCOc1nc(N)c2[nH]cc(Cc3ccc4c(c3)CN(CC)CC4)c2n1 [Example 30]  Toll-like receptor 7 (Homo sapiens (Human))    100 to 1000 nM
5  CCCCOc1nc(N)c2[nH]c(C#N)c(Cc3ccc(CN4CCCC4)cc3)c2n1 [Example 42]  Toll-like receptor 7 (Homo sapiens (Human))       1 to 100 nM
6  CCCCOc1nc(N)c2[nH]cc(Cc3ccc(CN4CCCN(C)CC4)cc3)c2n1 [Example 16]  Toll-like receptor 7 (Homo sapiens (Human))    100 to 1000 nM
7  CCCCOc1nc(N)c2[nH]cc(Cc3ccc(C4CCCN4C)cc3)c2n1 (stereo not drawn) [Example 26]  Toll-like receptor 7 (Homo sapiens (Human))    100 to 1000 nM
8  CCCCOc1nc(N)c2[nH]c(C#N)c(Cc3ccc(CN4CCN(C)CC4)cc3)c2n1 [Example 44]  Toll-like receptor 7 (Homo sapiens (Human))       1 to 100 nM
9  CCCCOc1nc(N)c2[nH]cc(Cc3cccc(CN4CCOCC4)c3)c2n1 [Example 2]  Toll-like receptor 7 (Homo sapiens (Human))  1000 to 50000 nM

###

In this section, each of the compounds is paired with its reported pEC50.
# subject of test: Toll-like receptor 7 (Homo sapiens (Human), UniProt Q9NYK1)
# Sequence (Q9NYK1 27-1049): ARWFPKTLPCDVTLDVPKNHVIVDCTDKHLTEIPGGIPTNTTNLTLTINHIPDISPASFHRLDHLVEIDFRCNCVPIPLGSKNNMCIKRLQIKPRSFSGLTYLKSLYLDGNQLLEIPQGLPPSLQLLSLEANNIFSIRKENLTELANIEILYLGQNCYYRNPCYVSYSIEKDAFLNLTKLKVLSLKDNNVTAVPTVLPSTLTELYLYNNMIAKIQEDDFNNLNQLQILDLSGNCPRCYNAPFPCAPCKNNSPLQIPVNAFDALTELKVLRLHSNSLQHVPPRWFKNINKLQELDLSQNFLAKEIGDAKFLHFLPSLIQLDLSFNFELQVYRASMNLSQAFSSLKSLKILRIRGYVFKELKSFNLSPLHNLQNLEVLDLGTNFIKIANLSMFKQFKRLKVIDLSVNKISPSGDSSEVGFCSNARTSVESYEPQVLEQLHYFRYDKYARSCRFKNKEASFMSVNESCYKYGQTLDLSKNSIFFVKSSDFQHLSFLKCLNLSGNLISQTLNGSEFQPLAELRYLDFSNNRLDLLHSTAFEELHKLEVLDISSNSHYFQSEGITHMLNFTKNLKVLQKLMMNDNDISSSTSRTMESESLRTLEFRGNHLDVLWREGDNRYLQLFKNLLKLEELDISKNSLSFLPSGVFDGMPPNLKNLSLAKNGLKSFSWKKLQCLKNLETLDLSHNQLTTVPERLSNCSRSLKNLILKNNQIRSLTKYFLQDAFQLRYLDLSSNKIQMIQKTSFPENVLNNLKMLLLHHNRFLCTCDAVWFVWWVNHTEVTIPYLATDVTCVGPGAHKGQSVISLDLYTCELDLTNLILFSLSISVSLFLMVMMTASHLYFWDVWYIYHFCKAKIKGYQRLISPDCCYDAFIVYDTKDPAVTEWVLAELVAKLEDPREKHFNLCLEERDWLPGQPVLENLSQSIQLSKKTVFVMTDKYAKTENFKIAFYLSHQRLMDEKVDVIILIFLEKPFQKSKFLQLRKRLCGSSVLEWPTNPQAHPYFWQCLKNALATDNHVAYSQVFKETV
# assay protocol: Toll-like receptor 7 in vitro receptor binding activity screen (HEK-blue hTLR7 cell, alkaline phosphatase/Quanti-Blue readout)
# Format: cell-based
# conditions used: HEK-blue hTLR7 cell, head-to-head test; read-out: TLR7 EC50
pEC50: −log10 of the molar value.
value kind: pEC50

> print(dat)
                                   compound                           subject.of.test  value
1  CCCCOc1nc(N)c2[nH]cc(Cc3ccc(CN4CCCC4)cc3)c2n1  Toll-like receptor 7 (Homo sapiens (Human), UniProt Q9NYK1)   6.80
2  CCCCOc1nc(N)c2c(n1)N(Cc1cccc(CN3CCCC3)c1)CC(=O)N2 [GS-9620, reference compound]  Toll-like receptor 7 (Homo sapiens (Human), UniProt Q9NYK1)   6.29

###

# assay protocol: in vivo
# conditions used: male, SD, rat, iv, 1 mg/kg, 0.25 h
value kind: Mean plasma drug concentration

> print(dat)
                                   compound                      value.kind     value
1  CCCCOc1nc(N)c2[nH]cc(Cc3ccc(CN4CCCC4)cc3)c2n1  Mean plasma drug concentration  0.141 µM
2  CCCCOc1nc(N)c2c(n1)N(Cc1cccc(CN3CCCC3)c1)CC(=O)N2 [GS-9620, reference compound]  Mean plasma drug concentration  0.102 µM

###

# assay protocol: in vivo
# conditions used: male, SD, rat, iv, 1 mg/kg
In this section, each of the compounds is paired with its reported clearance.
value kind: clearance (mL/min/kg)

> print(dat)
                                   compound  value.kind  value
1  CCCCOc1nc(N)c2c(n1)N(Cc1cccc(CN3CCCC3)c1)CC(=O)N2 [GS-9620, reference compound]   clearance    205
2  CCCCOc1nc(N)c2[nH]cc(Cc3ccc(CN4CCCC4)cc3)c2n1 [Example 21]   clearance   65.8

###

# assay protocol: in vivo
# conditions used: male, SD, rat, iv, 1 mg/kg, 24 h
value kind: Mean plasma drug concentration

> print(dat)
                                  structure    value
1  CCCCOc1nc(N)c2[nH]cc(Cc3ccc(CN4CCCC4)cc3)c2n1  3.94 nM

###

# assay protocol: in vivo
# conditions used: male, SD, rat, po, 5 mg/kg
value kind: AUC(0-t)

> print(dat)
                                   molecule  value.kind       value
1  CCCCOc1nc(N)c2[nH]cc(Cc3ccc(CN4CCCC4)cc3)c2n1    AUC(0-t)  0.699 µM·h
2  CCCCOc1nc(N)c2c(n1)N(Cc1cccc(CN3CCCC3)c1)CC(=O)N2 [GS-9620, reference compound]    AUC(0-t)  0.316 µM·h

The values you see were collected from patent US9962388B2.
